Reported HLA-A2:LILRB2 CHOs blocking (% blocked) values for the following binders.
Target of assay: T1, human LILRB2 expressed on cells (human, UniProt Q8N423 22-597)
T1 construct: CHO-s cells over-expressing full-length human LILRB2, or primary human macrophages and dendritic cells; also called hLILRB2-CHO-s; hLILRB2+ CHO-s
T1 sequence (Q8N423 other isoform, or with tags, fused parts or gaps limits assumed): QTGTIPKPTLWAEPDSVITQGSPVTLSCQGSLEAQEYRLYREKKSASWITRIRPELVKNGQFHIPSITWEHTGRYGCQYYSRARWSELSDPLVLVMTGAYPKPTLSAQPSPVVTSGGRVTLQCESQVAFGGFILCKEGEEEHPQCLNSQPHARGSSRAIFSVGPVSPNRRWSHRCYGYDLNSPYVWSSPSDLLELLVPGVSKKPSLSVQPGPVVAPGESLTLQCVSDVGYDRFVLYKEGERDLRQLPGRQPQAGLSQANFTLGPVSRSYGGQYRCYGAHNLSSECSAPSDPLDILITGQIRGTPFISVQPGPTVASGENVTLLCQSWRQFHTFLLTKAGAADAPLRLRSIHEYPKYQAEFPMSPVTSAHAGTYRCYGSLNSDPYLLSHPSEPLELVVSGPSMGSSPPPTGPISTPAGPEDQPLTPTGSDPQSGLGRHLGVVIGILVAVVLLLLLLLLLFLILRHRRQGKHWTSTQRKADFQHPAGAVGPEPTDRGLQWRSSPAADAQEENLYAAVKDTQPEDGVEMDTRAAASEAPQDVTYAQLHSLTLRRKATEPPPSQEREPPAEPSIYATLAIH
Test summary: blocking of HLA-A2 tetramer on LILRB2 CHOs, flow cytometry, mAb 10 ug/mL
Expressed in % blocked, but write only the number.

Example binders with recorded HLA-A2:LILRB2 CHOs blocking (% blocked):
J-04 (antibody, human IgG4 S228P, kappa, V domains shown, Human IgG4 chimera of murine origin) VH: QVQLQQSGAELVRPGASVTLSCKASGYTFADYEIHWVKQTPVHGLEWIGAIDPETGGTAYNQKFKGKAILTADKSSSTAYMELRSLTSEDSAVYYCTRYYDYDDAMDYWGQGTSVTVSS VL: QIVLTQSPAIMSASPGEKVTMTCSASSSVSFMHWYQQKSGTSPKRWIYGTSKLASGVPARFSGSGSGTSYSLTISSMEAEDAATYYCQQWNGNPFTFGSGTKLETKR = -319
J-11 (antibody, human IgG4 S228P, kappa, V domains shown, Human IgG4 chimera of murine origin; also called J-11.h) VH: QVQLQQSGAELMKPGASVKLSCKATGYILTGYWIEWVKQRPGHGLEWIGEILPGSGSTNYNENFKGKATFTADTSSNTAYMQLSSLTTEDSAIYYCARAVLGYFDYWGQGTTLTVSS VL: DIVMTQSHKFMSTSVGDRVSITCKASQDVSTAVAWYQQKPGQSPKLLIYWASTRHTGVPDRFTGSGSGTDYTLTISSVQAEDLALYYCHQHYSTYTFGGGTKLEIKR = 94.4

Look at this binder and give its reported HLA-A2:LILRB2 CHOs blocking (% blocked). J-19 (antibody, human IgG4 S228P, kappa, V domains shown, Human IgG4 chimera from a rat immunization; also called J-19.h) VH: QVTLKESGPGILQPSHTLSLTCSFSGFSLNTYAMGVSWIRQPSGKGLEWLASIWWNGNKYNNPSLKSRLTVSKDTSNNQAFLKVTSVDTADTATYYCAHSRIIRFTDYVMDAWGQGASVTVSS VL: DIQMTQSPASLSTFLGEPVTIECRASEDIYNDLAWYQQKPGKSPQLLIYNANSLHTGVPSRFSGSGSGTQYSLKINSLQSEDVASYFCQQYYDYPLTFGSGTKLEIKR
95.3

Look at this binder and give its reported HLA-A2:LILRB2 CHOs blocking (% blocked). J-17 (antibody, human IgG4 S228P, kappa, V domains shown, Human IgG4 chimera of murine origin; also called J-17.h) VH: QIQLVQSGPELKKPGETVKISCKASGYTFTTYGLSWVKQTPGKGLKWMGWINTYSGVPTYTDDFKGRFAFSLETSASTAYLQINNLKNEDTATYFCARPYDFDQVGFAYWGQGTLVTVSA VL: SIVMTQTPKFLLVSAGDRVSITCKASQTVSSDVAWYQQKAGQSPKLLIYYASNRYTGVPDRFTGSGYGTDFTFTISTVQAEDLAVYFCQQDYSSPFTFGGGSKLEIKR
93.4

Look at this binder and give its reported HLA-A2:LILRB2 CHOs blocking (% blocked). J-03 (antibody, human IgG4 S228P, kappa, V domains shown, Human IgG4 chimera of murine origin) VH: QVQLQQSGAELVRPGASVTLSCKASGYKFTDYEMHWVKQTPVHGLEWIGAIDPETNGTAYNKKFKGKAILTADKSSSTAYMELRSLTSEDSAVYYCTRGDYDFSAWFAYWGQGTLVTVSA VL: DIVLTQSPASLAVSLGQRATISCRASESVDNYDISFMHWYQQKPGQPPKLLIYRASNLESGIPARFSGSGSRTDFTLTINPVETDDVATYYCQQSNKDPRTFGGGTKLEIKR
-208
